Test: UV absorbance spectrum in solution (λmax, λcrit, extinction coefficients)
Assay type: physicochemical
Details: molar extinction coefficient; in M-1 cm-1 (unit assumed)
parameter: ε

These solved cases illustrate the format of a correct answer.
INSERT INTO assay_data (compound, meas_value) VALUES
  ('CCN(/C=C(\C(=O)C(F)(F)C(F)(F)C(F)(F)C(=O)/C(=C\N(CC)c1ccccc1)c1ccccc1)c1ccccc1)c1ccccc1', 40027),
  ('CC(C)(C)OC(=O)C(=O)/C(=C/N1CCc2ccccc21)c1ccccc1', 32824),
  ('CCN(/C=C(/C(=O)c1ccccc1)c1ccccc1)CC', 18293);

Report ε for every entry below.
1. CCN(/C=C(\C(=O)C(F)(F)F)c1ccccc1)c1ccc(Br)cc1
2. CCCCC(CC)COC(=O)c1ccc(N(/C=C(\C(=O)C(F)(F)F)c2ccccc2)CC)cc1 (stereo not drawn)
3. CC(C)(C)OC(=O)C(=O)/C(=C/N(c1ccccc1)c1ccccc1)c1ccccc1
4. C=CCN(/C=C(\C(=O)C(F)(F)F)c1ccccc1)c1ccccc1
5. O=C(/C(=C\N1CCOCC1)c1ccccc1)C(F)(F)F
6. COC(=O)c1ccc2c(c1)CCN2/C=C(/C(=O)C(C)(C)C)c1ccccc1
7. CCN(/C=C(/C(=O)c1ccc(C)cc1)c1ccccc1)c1ccccc1
8. O=C(/C(=C\N(Cc1ccccc1)c1ccccc1)c1ccccc1)C(F)(F)F

A.
1: 25865; 2: 30252; 3: 22023; 4: 22290; 5: 24356; 6: 48637; 7: 20922; 8: 23495

Could you report ε for every entry in the following list?
1. Cc1ccc(C(=O)/C(=C/N(c2ccccc2)c2ccccc2)c2ccccc2)cc1
2. CCOc1ccc(/C(=C/N(CC)c2ccccc2)C(=O)C(F)(F)F)cc1
3. COC(=O)c1ccc2c(c1)CCN2/C=C(/C(=O)C(=O)Oc1ccccc1)c1ccccc1
4. COC(=O)c1ccc2c(c1)CCN2/C=C(/C(=O)C(=O)N1CCc2ccccc21)c1ccccc1
5. Cc1cc(C)c(C(=O)/C(=C\N2CCc3cc(C(=O)OCCCOC(=O)c4ccc5c(c4)CCN5/C=C(/C(=O)c4c(C)cc(C)cc4C)c4ccccc4)ccc32)c2ccccc2)c(C)c1
6. CCCCC(CC)COC(=O)c1ccc2c(c1)CCN2/C=C(/C(=O)c1ccncc1)c1ccccc1 (stereo not drawn)

A.
1: 16369; 2: 42359; 3: 30040; 4: 48709; 5: 107885; 6: 38378

Lab note: each compound below needs its ε filled in.
1. COC(=O)c1ccc2c(c1)CCN2C=C(C(=O)C(C)(C)C)c1ccc(C)cc1
2. COc1ccc2c(c1)CCN2/C=C(\C(=O)C(F)(F)F)c1ccccc1
3. CCOC(=O)C(=O)/C(=C\N(CC)c1ccccc1)c1ccccc1
4. CCCN(/C=C(\C(=O)C(F)(F)F)c1ccccc1)c1ccc(N(/C=C(\C(=O)C(F)(F)F)c2ccccc2)CCC)cc1

A.
49288
34855
23523
41997
